- Tested on: OVCAR-8 ovarian
- assay_text: NCI-60 one-dose screen, 48 h (100 = growth as untreated, 0 = no growth, -100 = all killed)
- reported_conditions: 10 µM unless noted
The panel holds about 83,000 compounds, 20% with a hit somewhere; the sample as a whole holds those more often.
Examples of molecules with documented growth follow.
All answers are understood in %, so give the number only.

# structure_as_smiles, system, growth, %
data = [
    ("COc1ccc(Cn2cc(C(=O)Nc3cccnc3Nc3ccccc3)nn2)cc1", "OVCAR-8 ovarian", 101),
]

Prompt line: Find the measured growth of O=C(Nc1ncc(Cc2cccc(C(F)(F)F)c2)s1)c1ccc2c(c1)OCCO2 and report it.
Response line: 23.2

Prompt line: Find the measured growth of N#Cc1ccccc1OCC(=O)Nc1nc2c(s1)COc1ccccc1-2 and report it.
Response line: 106
